test system: OVCAR-5 ovarian; assay: NCI tumour cell line growth inhibition, 48 h; in the data active means GI50 below about 0.43 µM; inactive means the rest
Give your call using only these classes: Yes (active), No (inactive)

Asked: Call for entry Oc1ccc(Br)cc1Sc1cc(Br)ccc1O :
Given back: No

Asked: Call for entry CCOC(=O)[C@@H](C)C[C@H](Cc1ccccc1)NC(=O)c1csc([C@@H](C[C@H](C(C)C)N(C)C(=O)[C@@H](NC(=O)[C@H]2C[C@H](O[Si](C)(C)C(C)(C)C)CCN2C)C(C)C)OC(C)=O)n1 :
Given back: Yes

Asked: Call for entry CC[N+](CC)=c1ccc2nc3c(cc(N)c4ccccc43)oc-2c1 :
Given back: Yes

Asked: Call for entry COc1cc2c(cc1OCc1ccccc1)N=C[C@@H]1C/C(=C/C(=O)NCCCN3C(=O)c4cccc5cccc(c45)C3=O)CN1C2=O :
Given back: No

====

Exercise: state measured TGI for each of the compounds provided.
tested on: SNB-75 CNS; test: NCI tumour cell line growth inhibition, 48 h
Where a SMILES comes first, the peptide text is derived from it. [ ]: non-standard residue; d: D form. The star is where a group is joined. Cbz = O=C(OCc1ccccc1)*; Boc = CC(C)(C)OC(=O)*; Aib = CC(C)(N)C(=O)O; OBn = c1ccc(CO*)cc1; OtBu = CC(C)(C)O*; βAla = NCCC(=O)O

Asked: Consider the compound O=C(/C=C/c1ccc([N+](=O)[O-])cc1)c1nc2ccccc2[nH]1 . State its measured TGI.
Given back: > 100 µM

Asked: Consider the compound Cc1c(CCCl)c(=O)n2c([nH]c3ccccc32)c1C#N . State its measured TGI.
Given back: 2.78 µM

Asked: Consider the compound O=C(NNC(=S)Nc1ccccc1)c1csc(NC(=S)NC2CCCCC2)n1 . State its measured TGI.
Given back: > 100 µM

Asked: Consider the compound CC(C)(C)OC(=O)CC(NC(=O)OC(C)(C)C)C(=O)NC(CCCCNC(=O)OCc1ccccc1)C(=O)NC(C)(C)C(=O)NCCC(=O)OCc1ccccc1 (stereo not given) (Boc-D(OtBu)K(Cbz)[Aib][βAla]-OBn; configuration not given here) . State its measured TGI.
Given back: > 100 µM

Asked: Consider the compound Cc1ccc(C(=O)c2oc3ccc4c(C)cc(=O)oc4c3c2C)cc1 . State its measured TGI.
Given back: 39.4 µM

Asked: Consider the compound CN1C2CC(=O)CC1[C@@H]1OC(c3ccccc3)O[C@H]21 (stereo not given in full) . State its measured TGI.
Given back: > 100 µM

Asked: Consider the compound O=C(C(O)c1cn(Cc2ccccc2)c2ccccc12)N1CCCCC1 (stereo not given) . State its measured TGI.
Given back: > 100 µM

Asked: Consider the compound Cc1ccc2c(c1)OC1Nc3ccccc3C1=C2O (stereo not given) . State its measured TGI.
Given back: > 100 µM

Asked: Consider the compound NC(=O)c1c[se]c(C2OC(CO)C(O)C2O)n1 (stereo not given) . State its measured TGI.
Given back: > 100 µM

Asked: Consider the compound COC1=CC23C=CC1[C@@H](c1ccccc1)C2=C(C)C(=O)N3C(=O)NC1CCCCC1 (stereo not given in full) . State its measured TGI.
Given back: > 100 µM

====

test system: DU-145 prostate; assay: NCI tumour cell line growth inhibition, 48 h; in the data active = GI50 below about 0.43 µM; inactive = the rest
Give your call using only these classes: true = active, false = inactive

Asked: Call for entry O=C(Nc1ccc(Cl)cc1)Nc1ccc(Cl)c(Cl)c1 :
Given back: false

Asked: Call for entry CCOC(=O)[C@@H](C)C[C@H](Cc1ccccc1)NC(=O)c1csc([C@@H](C[C@H](C(C)C)N(C)C(=O)[C@@H](NC(=O)[C@H]2C[C@H](O[Si](C)(C)C(C)(C)C)CCN2C)C(C)C)OC(C)=O)n1 :
Given back: true

Asked: Call for entry COc1cc(-c2cnn(C)c2)ccc1Nc1ncc2ccnc(N[C@@H](C)C(C)(C)C)c2n1 :
Given back: false

Asked: Call for entry COc1cc2c(cc1OCc1ccccc1)N=C[C@@H]1C/C(=C/C(=O)NCCCN3C(=O)c4cccc5cccc(c45)C3=O)CN1C2=O :
Given back: true

Asked: Call for entry COc1cc(/C=C/c2cc(C(F)(F)F)[nH]c(=O)n2)ccc1OCc1ccccc1F :
Given back: false

Asked: Call for entry Cc1cc(/C=C2\SC(=Nc3ccccc3)N(C3CCCC3)C2=O)c(C)n1-c1ccc(Cl)cc1 :
Given back: false

Asked: Call for entry c1ccc2c(c1)[I+]c1ccccc1-2 :
Given back: false

Asked: Call for entry Cc1ccc(C(=O)c2oc3ccc4c(C)cc(=O)oc4c3c2C)cc1 :
Given back: false

Asked: Call for entry COc1cc(OC)c(/C=C/c2ccc3ccccc3[n+]2C)c(OC)c1 :
Given back: false

Asked: Call for entry C=CC(=O)N1CCCC(n2nc(-c3ccc(Oc4ccccc4)cc3)c3c(N)ncnc32)C1 (stereo not given) :
Given back: false

Asked: Call for entry O=C(Nc1ccccc1C(F)(F)F)c1cccc(NC2=C(Cl)C(=O)N(Cc3ccccc3)C2=O)c1 :
Given back: false

Asked: Call for entry COc1cccc(-c2nc3sccn3c2-c2ccnc(NCCNC(=O)Nc3cccc(C(F)(F)F)c3)n2)c1 :
Given back: false

Asked: Call for entry CCOc1ccc(/C=C/C(=O)c2ccccc2)cc1 :
Given back: false

Asked: Call for entry C=CCn1c(C)nc2cc(Nc3nc(Nc4ccc5nc(C)n(CC=C)c5c4)c4ccccc4n3)ccc21 :
Given back: true

Asked: Call for entry COc1ccc2c(c1)sc1nc(-c3ccccc3)c(-c3ccsc3)n12 :
Given back: false

====

system: OVCAR-8 ovarian; test: NCI tumour cell line growth inhibition, 48 h
Exercise: state measured GI50 for each of the compounds provided.

Asked: Consider the compound COc1cc(-c2cnn(C)c2)ccc1Nc1ncc2ccnc(N[C@@H](C)C(C)(C)C)c2n1 . State its measured GI50.
Given back: > 49.6 µM

Asked: Consider the compound O=C(Nc1ccccc1C(F)(F)F)c1cccc(NC2=C(Cl)C(=O)N(Cc3ccccc3)C2=O)c1 . State its measured GI50.
Given back: 42.3 µM

Asked: Consider the compound O=C(Oc1ccc(O)c2c(=O)n3c(cc12)[nH]c1ccccc13)c1ccccc1 . State its measured GI50.
Given back: 11.1 µM

Asked: Consider the compound COc1c/c(=C2/C=c3ccccc3=N2)[nH]/c1=C/c1[nH]c(C)cc1C . State its measured GI50.
Given back: 0.0448 µM

Asked: Consider the compound COc1ccc(/C=C/c2cc(OC)c(OC)c(OC)c2)cc1NC(=O)/C=C/c1ccc(F)cc1 . State its measured GI50.
Given back: 3.37 µM

Asked: Consider the compound CC[N+](CCCCCCCCCC[N+](CC)(c1ccccn1)c1ccccn1)(c1ccccn1)c1ccccn1 . State its measured GI50.
Given back: 2.11 µM

Asked: Consider the compound COc1cc(OC2OC(C)C(O)C(O)C2O)cc2oc(-c3ccc(O)cc3)c(CC=C(C)C)c(=O)c12 (stereo not drawn) . State its measured GI50.
Given back: 32.3 µM

Asked: Consider the compound COC(=O)CCC/C=C\C[C@H]1C=CC(=O)/C1=C/C[C@@H](O)CCc1cccc(C(F)(F)F)c1 . State its measured GI50.
Given back: 3.31 µM

====

system: T-47D breast; experiment: NCI tumour cell line growth inhibition, 48 h
Exercise: state measured TGI for each of the compounds provided.
Write the number in µM without appending the unit.

Asked: For T-47D breast, give the measured TGI of the entry C=CC(=O)N1CCCC(n2nc(-c3ccc(Oc4ccccc4)cc3)c3c(N)ncnc32)C1 (configuration not stated)
Given back: 18.6

Asked: For T-47D breast, give the measured TGI of the entry CCN(CC)CCCNc1ccc2nnn3c4ccc(O)cc4c(=O)c1c23
Given back: 39.9

Asked: For T-47D breast, give the measured TGI of the entry CCCCCCCCCCCCCCCCCCOCC(O)COP(=O)(O)OCC1OC(n2cc(F)c(=O)[nH]c2=O)CC1O (configuration not stated)
Given back: 38.8

Asked: For T-47D breast, give the measured TGI of the entry Cc1ccc2c(c1)OC1Nc3ccccc3C1=C2O (configuration not stated)
Given back: 85

Asked: For T-47D breast, give the measured TGI of the entry O=C(Nc1cccc(-c2cn3ccccc3n2)c1)c1ccncc1
Given back: 79.6

Asked: For T-47D breast, give the measured TGI of the entry C=CCn1c(C)nc2cc(Nc3nc(Nc4ccc5nc(C)n(CC=C)c5c4)c4ccccc4n3)ccc21
Given back: 0.909

Asked: For T-47D breast, give the measured TGI of the entry O=C1C=CC(=O)c2ncccc21
Given back: 5.18

Asked: For T-47D breast, give the measured TGI of the entry COc1cccc(-c2nc3sccn3c2-c2ccnc(NCCNC(=O)Nc3cccc(C(F)(F)F)c3)n2)c1
Given back: 13.8

Asked: For T-47D breast, give the measured TGI of the entry O=C(Nc1ccc(Cl)cc1)Nc1ccc(Cl)c(Cl)c1
Given back: 30.6

Asked: For T-47D breast, give the measured TGI of the entry COc1cc2nc(-c3ccc(C(F)(F)F)cc3)cc(OCCCN3CCOCC3)c2cc1OC
Given back: 23.8

Asked: For T-47D breast, give the measured TGI of the entry Oc1ccc(Br)cc1Sc1cc(Br)ccc1O
Given back: 17.7

Asked: For T-47D breast, give the measured TGI of the entry Oc1ccc(N=Nc2ccc(Cl)cc2)cc1
Given back: 67.4
